assay: RP-TLC lipophilicity, silica gel C18, methanol-water; format: physicochemical; details: RP-TLC silica gel C18, mean value of RM
Note that class boundaries on mRM are bottom (below 0.9), middle (0.9 to below 1), top (1 or more)

compound: CCn1cc(C(=O)O)c(=O)c2cc(F)c(N3CC[N+]4(CC3)CN3C(C)=CC(C)=C(C(=O)O)C3=N4)nc21.[Cl-]
assigned_category: bottom
--
compound: COc1c(N2CC[N+]3(CN4C(=N3)C(C(=O)O)=Cc3ccccc34)C(C)C2)c(F)cc2c(=O)c(C(=O)O)cn(C3CC3)c12.[Cl-] (stereo not shown)
assigned_category: middle
--
compound: CCn1cc(C(=O)O)c(=O)c2cc(F)c(N3CC[N+]4(CC3)CN3C(=N4)C(C(=O)O)=Cc4ccccc43)cc21.[Cl-]
assigned_category: middle
--
compound: O=C(O)c1cn(C2CC2)c2cc(N3CCNCC3)c(F)cc2c1=O [Compound 22, ciprofloxacin, reference compound]
assigned_category: top
--
compound: CCn1cc(C(=O)O)c(=O)c2cc(F)c(N3CC[N+]4(CC3)CN3C(C)=CC(C)=C(C(=O)O)C3=N4)cc21.[Cl-]
assigned_category: bottom
--
compound: COc1c(N2CC[N+]3(CN4C(C)=CC(C)=C(C(=O)O)C4=N3)C(C)C2)c(F)cc2c(=O)c(C(=O)O)cn(C3CC3)c12.[Cl-] (stereo not shown)
assigned_category: bottom
--
compound: CCn1cc(C(=O)O)c(=O)c2cc(F)c(N3CC[N+]4(CN5C(C)=CC(C)=C(C(=O)O)C5=N4)C(C)C3)c(F)c21.[Cl-] (stereo not shown)
assigned_category: bottom
--
compound: CCn1cc(C(=O)O)c(=O)c2cc(F)c(N3CCNC(C)C3)c(F)c21 (stereo not shown) [Compound 17, reference compound]
assigned_category: top
--
compound: CCn1cc(C(=O)O)c(=O)c2cc(F)c(N3CCNCC3)nc21 [Compound 23, enoxacin, reference compound]
assigned_category: top
--
compound: CCn1cc(C(=O)O)c(=O)c2cnc(N3CCNCC3)nc21 [Compound 19, pipemidic acid, reference compound]
assigned_category: top

###

assay: RP-TLC lipophilicity, silica gel C18, methanol-water; format: physicochemical; conditions: RP-TLC silica gel C18, slope of Soczewiński–Wachtmeister equation
Give 1 when the value for b is at least -2. Give -1 when it is less.

compound: CCn1cc(C(=O)O)c(=O)c2cc(F)c(N3CC[N+]4(CN5C(C)=CC(C)=C(C(=O)O)C5=N4)C(C)C3)c(F)c21.[Cl-] (stereo not drawn)
assigned_category: 1
--
compound: CCn1cc(C(=O)O)c(=O)c2cc(F)c(N3CC[N+]4(CC3)CN3C(C)=CC(C)=C(C(=O)O)C3=N4)cc21.[Cl-]
assigned_category: 1
--
compound: CC1CN(c2c(F)c(N)c3c(=O)c(C(=O)O)cn(C4CC4)c3c2F)CC(C)[N+]12CN1C(=N2)C(C(=O)O)=Cc2ccccc21.[Cl-] (stereo not drawn)
assigned_category: -1
--
compound: COc1c(N2CC[N+]3(CN4C(C)=CC(C)=C(C(=O)O)C4=N3)C(C)C2)c(F)cc2c(=O)c(C(=O)O)cn(C3CC3)c12.[Cl-] (stereo not drawn)
assigned_category: -1
--
compound: CCn1cc(C(=O)O)c(=O)c2cc(F)c(N3CCNCC3)cc21 [Compound 18, reference compound]
assigned_category: -1
